# System: MS2 coat protein
# EXPERIMENTAL DETAILS: apparent KD of MS2 coat protein; designed switch direction (-1 OFF switch, 1 ON switch): -1; higher = weaker reporter binding
# CONDITION SUMMARY: Eterna round: R95; input ligand: microRNA oligo, concentration not stated
// label = 1 if apparent KD of MS2 coat protein is not less than 30 nM, otherwise 0

- UUAGUGUGAGGAUAUGGUAAAGAUAAGAUGAUGAAAGAACUCCAGAAGGCACAUGAGGAUCACCCAUGUAGAUU [Mat - Exclusion 4 - Mod of JL - D25] (puzzle: Exclusion 4): 0

Is reported apparent KD of MS2 coat protein greater than or equal to 30 nM here: AGUAGAUCUACGCUUGCGUGGAUCUGCAAUGCAAGUGUUACAUGAGGAUCACCCAUGUCCUCAUUUGCUCGUCUUAG [JL turnoff v2 99.05] (puzzle: Sensor v3, turn-off variant 2)
1

apparent KD of MS2 coat protein >= 30 nM for AGUACUAACACGAAAGUGUUAGUACAAUAAGCUUGUGGAACAUGAGGAUCACCCAUGUCCUCAUAAGCUCGUCUUAG [Mat - Sensor v3 - Turn-off var 2 - D26] (puzzle: Sensor v3, turn-off variant 2) ?
1

Assess whether reported apparent KD of MS2 coat protein for GAGUGACAUGAGGAUCACCCAUGUGAGGAUAUCGGACGGACCUAGUUAACUUCCGCCGCGAGAAGGCACAUCGG [Exclusion 1 V23] (puzzle: Exclusion 1) sits at 30 nM or higher.
1

Reported apparent KD of MS2 coat protein reaches at least 30 nM for AAUUUACAUGAGGAUCACCCAUGUGAGGAUAUGAUACUAUGUACUUCGGUACAUAGUAUCAGAAGGCAUGUGGA [Ex1-3: 91] (puzzle: Exclusion 1) ?
1

Exam item: decide whether the reported apparent KD of MS2 coat protein for UUAAUGUGAGGAUAUCAGGUGUGCUAGCGUACUGGUACAUCUGAGAAGGCACAUGAGGAUCACCCAUGUUUCUU [JL-ex4-3.23 Brourd mod] (puzzle: Exclusion 4) is at least 30 nM.
0

Decide: apparent KD of MS2 coat protein of GUAGAGUAAGGAUAUGCUGAAUAGGAUAGAAUGGUUAGAAAGCAGAAGGUACAUGAGGAUCACCCAUGUAAUGU [Excluse me!!!! 18 - Jieux - Exclusion 4] (puzzle: Exclusion 4) >= 30 nM?
0

Quick check: does CUGAUGUCAGGAUAUCAGAAAAGGCACAAGAACGCGCCAAAUGAGAAGGGACAUGAGGAUCACCCAUGUAAAAC [Reena] (puzzle: Exclusion 4) have apparent KD of MS2 coat protein greater than or equal to 30 nM?
0

Given UUAUUUAGUGUGAGGAUAUGCUGGUCCAUAGAUCAGCAGAAGGCACAUGAGGAUCACCCAUGUAAUAUAUUAAU [Mat - Exclusion 4 - JL Mod - D32] (puzzle: Brourd's mod of Exclusion 4) , state whether its apparent KD of MS2 coat protein is at least 30 nM.
0

Check if apparent KD of MS2 coat protein >= 30 nM (inclusive). Item: CCUUAAAUUGUAAGGAUAUUAAAGCUGCUGAGUUAUAAGAAGGUACAUGAGGAUCACCCAUGUUCGGCAGGGUC [Qulexeri] (puzzle: Brourd's mod of Exclusion 4)
0

====

# Test system: K4 kissing-loop RNA reporter
# EXPERIMENTAL DETAILS: apparent KD of K4 kissing-loop reporter; higher = weaker reporter binding
# CONDITION SUMMARY: Eterna round: R107; input ligand: none
Kindly state apparent KD of K4 kissing-loop reporter for each of the entries shown.
Numbers only, in nM.

Could you tell me apparent KD of K4 kissing-loop reporter for each of these sequences? They are listed below.
1. UGAUACCAGACGGCCGCCACUCCCGCAGGUCAAAGACCUGCGAAGAUGGUUCUUCAGUGAUGUUGGAGGACCGGGUCUGGUAUCU [FiskerMod 23 - Jieux - Exclusion - Tryptophan B]
2. AUCGUUGUCUGAGGAUAUCGGUUAACUGUAGUGAUGUUACAGAAAAUUCAUAUAAUAUUUUCUAUUCGAGAAGGCAGACUACGUA [JR_ExcFMNB_Sub018]

1. 137
2. 167

Can you give me apparent KD of K4 kissing-loop reporter for all of these, one by one?
1. ACUCCGAGUGAUGUUAAGAGAUUCUCUGUUAAGGAUAUUUUGCGCAAAAGAAGGUAACCCGGUUUUCGUAAUCUGUUAAUGCGGA [theeternabot_exclusion_KL_FMN_A_38]
2. AAAUAAAACUAUGAUACCAGUCAUCACAGAGUGAUGUUUUGUGGCAUUUUAAACUUGGCAGACCCUUGGCAGCAUGAUAUAGGAG [theeternabot_sameState_KL_Theo_B_8]
3. AGUGAACGAGCGGCCGCCACUAACUGAGUGAUGUUCGUGAGUAGUGCUGUUCUCAUGAUUGUUUUUAGGACCGGGUUCGAUGUUG [ttbjmullin]

1. 581
2. 318
3. 391

====

# System: K4 kissing-loop RNA reporter
# EXPERIMENTAL DETAILS: apparent KD of K4 kissing-loop reporter; higher = weaker reporter binding
# CONDITION SUMMARY: Eterna round: R107; input ligand: arginine 13.2 mM
METRIC: apparent KD of K4 kissing-loop reporter (nM)
Give bare numbers, in nM.

- GUUCGGAUGCGGGAUACCAGCGUACCGAGCAAGCUUCGGGUAGUGAUGUUAUCUGAAUUACGCCCUUGGCAGCCCGCAUCCGGGC [clock_plus]: 234
- CCUAUCUCAUACGAUACCAGUCAAUUAAAUUUUAUAAAUGCCAUCACCGAGUGAUGUUCGGACCCUUGGCAGCGUAUGGGAUAGG [Ex Theophylline B K4 2]: 175

Could you share which apparent KD of K4 kissing-loop reporter value was measured for AAACAUUGGUCUGAUACCAGCUGAUCGGAAACGAUCAUGCUGGAGUGAUGUUCCAGGAAAAGCCCUUGGCAGCAGACCGAUGAAA [MAT - Same State Theophlline B - Mod of Eli - D28] ?
103

====

Exercise: for every item that follows, state its recorded apparent KD of K4 kissing-loop reporter.
# System: K4 kissing-loop RNA reporter;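 further: bound reporter read as fluorescence of individual clusters on recovered sequencing chips by microscopy, with normalized cluster intensities fitted with a binding model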
# EXPERIMENTAL DETAILS: apparent KD of K4 kissing-loop reporter; higher = weaker reporter binding
# CONDITION SUMMARY: Eterna round: R107; input ligand: theophylline 20 uM
Enter the number, and then the unit.

# batch size: 3; output apparent KD of K4 kissing-loop reporter per entry
1. UGUACCGAGUCAGGAUAUCAAAAUAAUUGGAGUGAUGUUCCAAAUACGACUGACAAAGUCGGUCGAUGAGAAGGGACUUGGUACU [FmnBS 11 #SwitchBubble #StaticStem]
2. GCCGUAGAUGGAAGGAGCGAGGUAGACUGUUGAAGUGAUGUUUCAACUCAUUAAGCCCAACCUCAGGUAGGUCGCCAUCUACGGC
3. GGCGGCUGCGCGCAAGCGCAGCCGGCCGAUACCAGCGCGACGGCGCGCCCUUGGCAGCGGCGCCGAGUGAUGUUCGGCCUGCCGG [#2 Same State - Theophylline A Attempt #19 (HarryS)]

1. 163 nM
2. 118 nM
3. 418 nM

I would be grateful if you could provide apparent KD of K4 kissing-loop reporter for each of the following entries.
1. AUUUUUUUAUCAGGAUAUUAGUGAUGGUUUGUUUUGUUAGUGAUGUUGAUAUUUGUUUUAUGUAUUUAAGAAGGGAUUGAGAUGU [seesullin]
2. UGAUACCAGACGGCCGCCACUCCCGUAAGUCAAAGACUUACGAAGAGAGUUUUUCAGUGAUGUUGGAGGACCGGGUCUGGUAUCU [FiskerMod 16 - Jieux - Exclusion - Tryptophan B]

1. 29.2 nM
2. 850 nM

Please state apparent KD of K4 kissing-loop reporter for every sequence in the list that follows.
1. AUAAUAUGAGUGAUGUUCAUGUAAGCUGAAGGAGCGGACGAAAGUCCAGGUAGGUCGCAGCGUUCCUUUACCUCAUGAGAAGGAG [KL_SSArg-A1 #analogue]
2. AAAUUUAAUAUAUUUAAUUAAUUAUGUGAUACCAGACAUUUAUAAGUCCCUUGGCAGCACUUUGCAGUGAUGUUGCUUAUAAUAA [JR_SSTheophyA_Sub014]
3. CGUACGGUUUCUUUCUUUCCGUACGAGUGCCGAGGACCGGUACGGCCGCCACUCGCUACAGCCUAGUGAUGUUAGGAACGUGUUA
4. CAAUGAGUAUAAGAUGAUAUCAUAACAGAAGGAGCGAGUGAUAACUCAGGUAGGUCGCUGAAUUUAUCGAGUGAUGUUCGAUAGA [whbob_SS_Arginine_A_sa117]
5. GUAGUUGCGCAAGGAUAUUAGUUAAGUGAUGUUUGAUUCGGUAUUGUUUACGUACACUGACCCGAUUAAGAAGGUGCGGGCAGCG [theeternabot_exclusion_KL_FMN_B_50]
6. GAGCGGUGGAGGUUACCGCUAUUCUGAGAAGGAGCGCAGAUGACUGCAGGUAGGUCGCUUAGAGCUUGCAGUGAUGUUGCAAGUU [Edrirama]
7. UAAUGCAUGACGGCCGCCACUAGUACUGGAGUGAUGUUGUGGUACGGCGGCAGUUUAGGGUGGACUAGGACCGGGUCAUGCAUAU [KL-XTryp-B10 #analogue]

1: 235 nM; 2: 192 nM; 3: 87.3 nM; 4: 193 nM; 5: 343 nM; 6: 193 nM; 7: 305 nM

// each sequence listed below needs its apparent KD of K4 kissing-loop reporter
1. GAUUGUGAUGGAAACAUCGCAAUCUCUGAAGGAGCGCGUGAAAACGCAGGUAGGUCGCAGGACGACUAUGACAGUGAUGUUGUCG [Ex Arginine A K4 3]
2. CUCGAGUGAUGUUCGAUUAUUUAUACAGAUACCAGUGAAUUUUAACACCCUUGGCAGCUGGUUGUAUCUUUGUAAUUUACACAAG [JR_ExcTheophyA_Sub005]

1: 207 nM; 2: 151 nM
